Test system: RPMI-8226 leukemia
Assay: NCI tumour cell line growth inhibition, 48 h
MEASURED PROPERTY: TGI

COMPOUND: Cc1ccc(S(=O)(=O)c2ccccc2[N+](=O)[O-])cc1
MEAS VALUE: > 100 µM

COMPOUND: COc1cc2c(cc1O)CC1c3c(cc(O)c(OC)c3-2)CCN1C (stereo unspecified)
MEAS VALUE: > 100 µM

COMPOUND: COC(=O)C1C(=O)N(C)C(=O)N2CCCC12 (stereo unspecified)
MEAS VALUE: > 100 µM

COMPOUND: CC(=O)NC1C(OCc2ccccc2)OC(CO)C(O)C1OC(C)C(=O)NC(C(=O)NC(CCC(=O)NCCCCNc1c2ccccc2nc2cccc([N+](=O)[O-])c12)C(N)=O)C(C)C (stereo unspecified)
MEAS VALUE: 2.39 µM

COMPOUND: Cc1nc2ccc(NC(=O)CCNC(=O)CCCc3ccc(CC(C(=O)O)C(=O)O)cc3)cc2s1
MEAS VALUE: > 100 µM

COMPOUND: CN(C)c1nc2ccccc2c2c1c1c(n2Cc2ccccc2)-c2ccccc2C1=O
MEAS VALUE: > 100 µM

COMPOUND: Cc1cc(N=C2C=C(Br)C(=O)C(Br)=C2)cc(CN(CC(=O)O)CC(=O)O)c1O
MEAS VALUE: > 100 µM

COMPOUND: Cc1c(C(=O)OCc2ccccc2)[n+](=O)c2cc(Cl)c(Cl)cc2n1[O-]
MEAS VALUE: 21.2 µM

COMPOUND: CCc1cc2c(c3c1CCCC3=O)CC1(Cc3ccc(C(=O)OC)cc3C1)C2 (stereo unspecified)
MEAS VALUE: 91 µM

COMPOUND: CN1C(=O)C(O)C[C@@H]1c1ccccc1 (stereo partly specified)
MEAS VALUE: > 100 µM

COMPOUND: CC(C)OP(=O)(OC(C)C)/C(N)=N/Nc1ccc([N+](=O)[O-])cc1
MEAS VALUE: > 100 µM

====

System: SF-268 CNS
Experiment: NCI tumour cell line growth inhibition, 48 h
MEASURED PROPERTY: TGI

MOLECULE: CN(C)c1nc2ccccc2c2c1c1c(n2Cc2ccccc2)-c2ccccc2C1=O
MEASURED PROPERTY: TGI
MEAS VALUE: > 100 µM
--
MOLECULE: CCOC(=O)c1cc2c([N+](=O)[O-])c(N)ccc2s1
MEASURED PROPERTY: TGI
MEAS VALUE: > 100 µM
--
MOLECULE: O=C(Oc1ccc(CO[N+](=O)[O-])cc1)c1ccccc1
MEASURED PROPERTY: TGI
MEAS VALUE: 0.317 µM
--
MOLECULE: CN1CC2=C(NC(=S)NC2c2ccccc2)/C(=C/c2ccccc2)C1 (stereo unspecified)
MEASURED PROPERTY: TGI
MEAS VALUE: > 100 µM
--
MOLECULE: O=C1CC(c2[nH]nc3ccccc23)C(=O)N1c1ccccc1 (stereo unspecified)
MEASURED PROPERTY: TGI
MEAS VALUE: > 100 µM
--
MOLECULE: C[Si](C)(C)/C=C\CCO
MEASURED PROPERTY: TGI
MEAS VALUE: > 100 µM

====

Tested on: OVCAR-5 ovarian
Experiment: NCI tumour cell line growth inhibition, 48 h

SMILES STR: Cn1c(-c2ccc(/C=N/NC(=S)N/N=C/c3ccc(-c4c[n+]5ccsc5n4C)cc3)cc2)c[n+]2ccsc12
TEST TARGET: OVCAR-5 ovarian
VALUE MODIFIER: >
TGI [µM]: 100

SMILES STR: Cc1ccc(N=Nc2c(O)ccc3ccccc23)cc1
TEST TARGET: OVCAR-5 ovarian
VALUE MODIFIER: >
TGI [µM]: 100

SMILES STR: CCCSc1ccc2[nH]c(N3C(=O)/C(=C/c4ccccc4)N=C3c3ccccc3)cc2c1
TEST TARGET: OVCAR-5 ovarian
VALUE MODIFIER: >
TGI [µM]: 50

SMILES STR: O=C1OC[C@H]2[C@@H]1[C@H]1O[C@@H]2C2=C(CCC2)C1=O
TEST TARGET: OVCAR-5 ovarian
VALUE MODIFIER: >
TGI [µM]: 100

SMILES STR: COc1cc2c(cc1OC)C(=O)/C(=C/c1cc(-c3ccc4c(c3)OCO4)n[nH]1)C2
TEST TARGET: OVCAR-5 ovarian
VALUE MODIFIER: =
TGI [µM]: 3

SMILES STR: c1ccc(-c2nc(N3CCOCC3)c3c4c(sc3n2)CCCCCC4)nc1
TEST TARGET: OVCAR-5 ovarian
VALUE MODIFIER: =
TGI [µM]: 26.5

SMILES STR: c1ccc(CN2CCC(Nc3ccccc3)(c3nnnn3Cc3ccccc3)CC2)cc1
TEST TARGET: OVCAR-5 ovarian
VALUE MODIFIER: =
TGI [µM]: 76.1

SMILES STR: C=CC(=O)Nc1cc(N2CCN(CC)CC2)ccc1Nc1cc(N(C)C(=O)Nc2c(Cl)c(OC)cc(OC)c2Cl)ncn1
TEST TARGET: OVCAR-5 ovarian
VALUE MODIFIER: =
TGI [µM]: 51.2

====

Test system: SNB-75 CNS
Assay: NCI tumour cell line growth inhibition, 48 h
Where a SMILES comes first, the peptide text is derived from it. [ ]: non-standard residue; d: D form. The star is where a group is joined. Bn2Val = CC(C)[C@@H](C(=O)*)N(Cc1ccccc1)Cc1ccccc1; NH(4-Cl-benzyl) = Clc1ccc(CN*)cc1; NMeV = CN[C@H](C(=O)O)C(C)C; dNMeA = CN[C@H](C)C(=O)O
// values below are reported TGI
MEASURED PROPERTY: TGI

COMPOUND: C=C(C)[C@H]1C2=CC(C)=C(O2)[C@@H](O[C@@H]2c3oc(cc3C)[C@H](C(=C)C)[C@H]3C=C(CC[C@H]2C(=C)C)C(=O)O3)[C@H](C(=C)C)CCC2=C[C@H]1OC2=O
TEST TARGET: SNB-75 CNS
MEASURED PROPERTY: TGI
MEAS VALUE: > 100 µM
//
COMPOUND: O=c1[nH]c2nc(NC3CCOCC3)ncc2cc1Oc1ccc(F)cc1F
TEST TARGET: SNB-75 CNS
MEASURED PROPERTY: TGI
MEAS VALUE: > 25 µM
//
COMPOUND: COc1cc2c(cc1O)CC1c3c(cc(O)c(OC)c3-2)CCN1C (stereo unspecified)
TEST TARGET: SNB-75 CNS
MEASURED PROPERTY: TGI
MEAS VALUE: > 100 µM
//
COMPOUND: Cc1nnc2n1N=C(c1ccc(Cl)cc1Cl)/C(=C/c1ccc(-c3ccc([N+](=O)[O-])cc3Cl)o1)S2
TEST TARGET: SNB-75 CNS
MEASURED PROPERTY: TGI
MEAS VALUE: > 100 µM
//
COMPOUND: Cc1cc(O)c(C2=NN(c3ccc(S(N)(=O)=O)cc3)C(c3ccc(Cl)cc3)C2)c(C)c1Cl (stereo unspecified)
TEST TARGET: SNB-75 CNS
MEASURED PROPERTY: TGI
MEAS VALUE: 23.7 µM
//
COMPOUND: c1ccc(-c2nc(N3CCOCC3)c3c4c(sc3n2)CCCCCC4)nc1
TEST TARGET: SNB-75 CNS
MEASURED PROPERTY: TGI
MEAS VALUE: 20.8 µM
//
COMPOUND: C=CC(=O)Nc1cc(N2CCN(CC)CC2)ccc1Nc1cc(N(C)C(=O)Nc2c(Cl)c(OC)cc(OC)c2Cl)ncn1
TEST TARGET: SNB-75 CNS
MEASURED PROPERTY: TGI
MEAS VALUE: 14.2 µM
//
COMPOUND: O=C(CCN1CCN2c3ccccc3CCC2C1)c1ccc(F)cc1 (stereo unspecified)
TEST TARGET: SNB-75 CNS
MEASURED PROPERTY: TGI
MEAS VALUE: 44.8 µM
//
COMPOUND: C1=C2CCCC3=Cc4ccccc4OC23Oc2ccccc21
TEST TARGET: SNB-75 CNS
MEASURED PROPERTY: TGI
MEAS VALUE: 5.84 µM
//
COMPOUND: NN=C(CC(O)(C(F)(F)Cl)C(F)(F)Cl)CC(O)(C(F)(F)Cl)C(F)(F)Cl
TEST TARGET: SNB-75 CNS
MEASURED PROPERTY: TGI
MEAS VALUE: > 10 µM
//
COMPOUND: Cc1cc(N=C2C=C(Br)C(=O)C(Br)=C2)cc(CN(CC(=O)O)CC(=O)O)c1O
TEST TARGET: SNB-75 CNS
MEASURED PROPERTY: TGI
MEAS VALUE: > 100 µM
//
COMPOUND: CCCCCCCCCCCCCCCCCCNc1nc(=O)n(C2CC(O)C(COP(=O)(O)O)O2)cc1F (stereo unspecified)
TEST TARGET: SNB-75 CNS
MEASURED PROPERTY: TGI
MEAS VALUE: > 100 µM
//
COMPOUND: CC(C)Cc1ccc(C(C)CC2=CCC(CN(C)C)C2=O)cc1 (stereo unspecified)
TEST TARGET: SNB-75 CNS
MEASURED PROPERTY: TGI
MEAS VALUE: 29.5 µM
//
COMPOUND: Cn1cc(-c2ccc3nnc(Sc4ccc5ncccc5c4)n3n2)cn1
TEST TARGET: SNB-75 CNS
MEASURED PROPERTY: TGI
MEAS VALUE: > 100 µM
//
COMPOUND: N.N.N.N.N.O=[N+]([O-])[O-].[Co+3].[O-][Cl+3]([O-])([O-])[O-]
TEST TARGET: SNB-75 CNS
MEASURED PROPERTY: TGI
MEAS VALUE: > 100 µM
//
COMPOUND: O=c1cc(N/N=C/c2ccc(F)cc2)c2cc(Cl)ccc2[nH]1
TEST TARGET: SNB-75 CNS
MEASURED PROPERTY: TGI
MEAS VALUE: 83.1 µM
//
COMPOUND: COC(=O)C1C(O)C(C)C(O)C(C)C=C(C)C2=C3C(=C(C)C(=O)c4c(O)c(c(C)c(OC(C)=O)c43)NC(=O)C(C)=C/C=C\C(C)C(O)C(C)C1O)OCO2 (stereo unspecified)
TEST TARGET: SNB-75 CNS
MEASURED PROPERTY: TGI
MEAS VALUE: 92.9 µM
//
COMPOUND: Cn1c(-c2ccc(/C=N/NC(=S)N/N=C/c3ccc(-c4c[n+]5ccsc5n4C)cc3)cc2)c[n+]2ccsc12
TEST TARGET: SNB-75 CNS
MEASURED PROPERTY: TGI
MEAS VALUE: > 100 µM
//
COMPOUND: CCc1cc2c(c3c1CCCC3=O)CC1(Cc3ccc(C(=O)OC)cc3C1)C2 (stereo unspecified)
TEST TARGET: SNB-75 CNS
MEASURED PROPERTY: TGI
MEAS VALUE: > 100 µM
//
COMPOUND: CC(C)[C@H](NC(=O)[C@H](C(C)C)N(Cc1ccccc1)Cc1ccccc1)C(=O)N(C)[C@H](C(=O)N1CCC[C@H]1C(=O)N(C)[C@H](C)C(=O)NCc1ccc(Cl)cc1)C(C)C (Bn2Val-V[NMeV]P[dNMeA]-{NH(4-Cl-benzyl)})
TEST TARGET: SNB-75 CNS
MEASURED PROPERTY: TGI
MEAS VALUE: 29.6 µM
//
COMPOUND: CC(C)(C)OC(=O)NCC(CNC(=O)OC(C)(C)C)c1nc(C(N)=O)cs1
TEST TARGET: SNB-75 CNS
MEASURED PROPERTY: TGI
MEAS VALUE: > 100 µM
//
COMPOUND: OCc1ccc(-c2cscc2-c2ccc(CO)o2)o1
TEST TARGET: SNB-75 CNS
MEASURED PROPERTY: TGI
MEAS VALUE: > 100 µM
//
COMPOUND: COc1ccc(Nc2ccc3ccccc3c2-c2c(O)ccc3ccccc23)cc1
TEST TARGET: SNB-75 CNS
MEASURED PROPERTY: TGI
MEAS VALUE: 46.2 µM
//
COMPOUND: NNC(=O)C1(NC(=O)c2ccccc2)C(c2ccccc2)C(c2ccccc2)=NN1c1ccccc1 (stereo unspecified)
TEST TARGET: SNB-75 CNS
MEASURED PROPERTY: TGI
MEAS VALUE: > 100 µM
//
COMPOUND: Cc1nc(Nc2ccccn2)sc1C(=O)/C=C/c1ccc(Cl)cc1
TEST TARGET: SNB-75 CNS
MEASURED PROPERTY: TGI
MEAS VALUE: 24.7 µM
//
COMPOUND: COc1cc2c(cc1OCCCCCCN1CCN(CC(=O)Nc3ccc(Cl)cc3C(=O)c3ccccc3Cl)CC1)N=CC1CCCN1C2=O (stereo unspecified)
TEST TARGET: SNB-75 CNS
MEASURED PROPERTY: TGI
MEAS VALUE: 0.472 µM
//
COMPOUND: COc1ccc(C(=O)C(CC2C(=O)NC(=O)NC2=O)c2ccc(OC)cc2)cc1 (stereo unspecified)
TEST TARGET: SNB-75 CNS
MEASURED PROPERTY: TGI
MEAS VALUE: > 100 µM
//
COMPOUND: N#Cc1cc2c(n(C3OC(CO)C(O)C(O)C3O)c1=S)CCCCCC2 (stereo unspecified)
TEST TARGET: SNB-75 CNS
MEASURED PROPERTY: TGI
MEAS VALUE: > 100 µM
//
COMPOUND: Cc1nc(N)c(N2CCN(CN)CC2)c(=O)[nH]1
TEST TARGET: SNB-75 CNS
MEASURED PROPERTY: TGI
MEAS VALUE: > 100 µM
//
COMPOUND: CC(C)(C)[Si](C)(C)OCc1cccc(OCCOc2cccc(CO[Si](C)(C)C(C)(C)C)c2[N+](=O)[O-])c1[N+](=O)[O-]
TEST TARGET: SNB-75 CNS
MEASURED PROPERTY: TGI
MEAS VALUE: > 100 µM
//
COMPOUND: COc1ccc(CCn2c(=O)c3ccccc3n(C)c2=O)cc1
TEST TARGET: SNB-75 CNS
MEASURED PROPERTY: TGI
MEAS VALUE: > 100 µM

Value source: PubChem BioAssay (NCI)
